Where do the numbers come from? From the supplement of paper PMC10201428.

System: VchCAST RNA-guided transposition machinery (E. coli BL21(DE3) host, lacZ target)
Assay: relative integration efficiency (T-LR orientation) vs wild-type transposon end (log2 (normalized fold change)); transposon end mutated: right end (5 bp flank + 75 bp right end); higher = more efficient transposition
Property Label: relative integration efficiency (log2)

>  <Sequence Code>
ACATTTGTTTATACAACCATAAAATGATAATTACACCCATAAATTTATTATTATCACACCCAATTTAACTATAACGCTCTGATCATAGTCAGACCAACATTGCTACGACCCGTATTCGCACCGACAC

>  <Property Label>
relative integration efficiency (log2)

>  <Endpoint Result>
-0.334

$$$$
>  <Sequence Code>
ACATTTGTTGATACAACCATAAAAGTCGCCGGCACAAACGCCCGGTCGCCGGCGACACAAACGCCCGGTCGCGGTAAGAGGATCATAGTCAGACCAACATTGCTACGACCCGTATTCGCACCGACAC

>  <Property Label>
relative integration efficiency (log2)

>  <Endpoint Result>
-2.61

$$$$
>  <Sequence Code>
ACATTTGTTGATACAACCATAAAATGATAATTAATAATTATTTACACCCATAAATTGATAATTATCACACCCATAAATTGATATTGCCTCTGATCATAGTCAGACCAACATTGCTACGACCCGTATT

>  <Property Label>
relative integration efficiency (log2)

>  <Endpoint Result>
-4.57

$$$$
>  <Sequence Code>
ACATTTGTTGATACAACCATAAAATGATAATTACACCCATAAATTGATAATTAAAACACCCATAAATTGATATTGCCTCTGATCATAGTCAGACCAACATTGCTACGACCCGTATTCGCACCGACAC

>  <Property Label>
relative integration efficiency (log2)

>  <Endpoint Result>
0.089

$$$$
>  <Sequence Code>
ACATTTGTTGATACAACCATAAAATGATAATTAACAAACGCCCGGTCGCCGGCTCACACCCATAAATTGATATTGCCTCTGATCATAGTCAGACCAACATTGCTACGACCCGTATTCGCACCGACAC

>  <Property Label>
relative integration efficiency (log2)

>  <Endpoint Result>
-0.997

$$$$
>  <Sequence Code>
ACATTTGTTGATACAACCATAAAATGATCATTACACCCATAAATTGATAATTATCCCACCCAATTTAACTATAACGCTCTGATCATAGTCAGACCAACATTGCTACGACCCGTATTCGCACCGACAC

>  <Property Label>
relative integration efficiency (log2)

>  <Endpoint Result>
2.27

$$$$
>  <Sequence Code>
ACATTTGTTGATACAACCATAAGTTGATATTTTCAACCATAAGTTGATATTTTTCAGTGGGTATTTAACTATAACGCTCTGATCATAGTCAGACCAACATTGCTACGACCCGTATTCGCACCGACAC

>  <Property Label>
relative integration efficiency (log2)

>  <Endpoint Result>
2.85

$$$$
>  <Sequence Code>
ACATTTGTTGATACAACCATAAAGTGATATTTACAACCATAAAGTGATATTTATCACAACCATATATTGATATCTCCTCTGATCATAGTCAGACCAACATTGCTACGACCCGTATTCGCACCGACAC

>  <Property Label>
relative integration efficiency (log2)

>  <Endpoint Result>
0.458

$$$$
>  <Sequence Code>
ACATTTGTTGATACAACCATAAAATGATAATTACACCACGCCCGGTCGCCGGCGACACAAACGCCCGGTCGCGGTAAGAGGATCATAGTCAGACCAACATTGCTACGACCCGTATTCGCACCGACAC

>  <Property Label>
relative integration efficiency (log2)

>  <Endpoint Result>
0.799

$$$$
>  <Sequence Code>
ACATTTGTTGATACAACCATAAAATGATAATTACACCCATCCCGTGATAATTATCACACCCATAAATTGATATTGCCTCTGATCATAGTCAGACCAACATTGCTACGACCCGTATTCGCACCGACAC

>  <Property Label>
relative integration efficiency (log2)

>  <Endpoint Result>
-1.98

$$$$
